experiment: AOX inhibitors, oxygen consumption, profiling panel (AID 1259412); conditions: AOX-dependent respiration, O2 uptake; measured here: growth, AOX-dependent treatment condition; at 500 µM; stronger effect = lower value;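 further: growth monitored over 72 h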
METRIC NAME: growth (% of control)

Solved cases below.
Lookup: So what's the measured growth (% of control) for this one? Cc1cccc(C(=O)Nc2cccc(I)c2)c1
Found: 61.9%

Lookup: So what's the measured growth (% of control) for this one? O=C(Nc1cccc(Cl)c1)c1cccc(Br)c1
Found: 71.8%

Lookup: So what's the measured growth (% of control) for this one? N#Cc1cccc(C(=O)Nc2cccc(NC(=O)c3cccc(C#N)c3)c2)c1
Found: 91.4%

Lookup: So what's the measured growth (% of control) for this one? O=C(Nc1cccc(Br)c1)c1cccc(Br)c1
Found: 82.5%

Continuing:
Lookup: So what's the measured growth (% of control) for this one? Cc1cccc(C(=O)Nc2cccc(NC(=O)c3cccc(C)c3)c2)c1
Found: 70.5%

Lookup: So what's the measured growth (% of control) for this one? O=C(Nc1cccc(C(F)(F)F)c1)c1cccc(Cl)c1
Found: 37.9%

Lookup: So what's the measured growth (% of control) for this one? O=C(Nc1cccc(Cl)c1)c1cccc(Cl)c1
Found: 48.1%

Lookup: So what's the measured growth (% of control) for this one? Cc1cccc(C(=O)NCc2ccc3c(c2)OCO3)c1
Found: 41.6%

Lookup: So what's the measured growth (% of control) for this one? COc1cccc(C(=O)Nc2cccc(OCc3ccccc3)c2)c1
Found: 105%

---

experiment: AOX inhibitors, oxygen consumption, profiling panel (AID 1259412); details: AOX-dependent respiration, O2 uptake; measured here: growth, control condition; at 500 µM;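 further: growth monitored over 72 h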
METRIC NAME: growth (% of control) (%)
Please respond with the number in % and leave the unit unwritten.

Solved cases below.
Lookup: So what's the measured growth (% of control) for this one? O=C(Nc1cccc(I)c1)c1cccc(I)c1
Found: 90.6

Lookup: So what's the measured growth (% of control) for this one? O=C(Nc1cccc([N+](=O)[O-])c1)c1cccc(Br)c1
Found: 80.8

Next molecule, please.
Lookup: So what's the measured growth (% of control) for this one? O=C(NCc1ccc2c(c1)OCO2)c1cccc(I)c1
Found: 97.5

---

experiment: AOX inhibitors, oxygen consumption, profiling panel (AID 1259412); settings: AOX-dependent respiration, O2 uptake; measured here: growth, AOX-dependent treatment condition; at 500 µM; stronger effect = lower value;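 further: growth monitored over 72 h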
Reported growth (% of control) by item:
Please respond with the number in % and leave the unit unwritten.

Solved cases below.
Lookup: So what's the measured growth (% of control) for this one? O=C(Nc1cccc([N+](=O)[O-])c1)c1cccc(Cl)c1
Found: 84.5

Lookup: So what's the measured growth (% of control) for this one? O=C(Nc1cccc([N+](=O)[O-])c1)c1cccc(I)c1
Found: 68.4

Lookup: So what's the measured growth (% of control) for this one? O=C(Nc1cccc(C(F)(F)F)c1)c1cccc(Br)c1
Found: 58.1

Lookup: So what's the measured growth (% of control) for this one? O=C(Nc1cccc(Br)c1)c1ccccc1
Found: 51.9

Lookup: So what's the measured growth (% of control) for this one? O=C(Nc1cccc(NC(=O)c2cccc(Cl)c2)c1)c1cccc(Cl)c1
Found: 90.7

Lookup: So what's the measured growth (% of control) for this one? O=C(Nc1cccc(Br)c1)c1cccc(F)c1
Found: 22.3

Continuing:
Lookup: So what's the measured growth (% of control) for this one? Cc1cccc(C(=O)Nc2cccc(OCc3ccccc3)c2)c1
Found: 93.7

Lookup: So what's the measured growth (% of control) for this one? COc1cccc(C(=O)Nc2cccc(S(=O)(=O)c3cccc(N)c3)c2)c1
Found: 132

Lookup: So what's the measured growth (% of control) for this one? N#Cc1cccc(C(=O)Nc2cccc(OCc3ccccc3)c2)c1
Found: 108

Lookup: So what's the measured growth (% of control) for this one? N#Cc1cccc(C(=O)Nc2cccc(F)c2)c1
Found: 55.1

Lookup: So what's the measured growth (% of control) for this one? COc1cccc(C(=O)NCc2ccc3c(c2)OCO3)c1
Found: 46.4

Lookup: So what's the measured growth (% of control) for this one? COc1cccc(C(=O)Nc2cc(OC)c(OC)c(OC)c2)c1
Found: 104

Lookup: So what's the measured growth (% of control) for this one? O=C(Nc1ccccc1)c1ccccc1
Found: 69.8

Lookup: So what's the measured growth (% of control) for this one? COc1cc(NC(=O)c2cccc(Cl)c2)cc(OC)c1OC
Found: 82.2

Lookup: So what's the measured growth (% of control) for this one? COc1cc(NC(=O)c2cccc(C#N)c2)cc(OC)c1OC
Found: 89.6

Lookup: So what's the measured growth (% of control) for this one? O=C(Nc1ccc(N2CCOCC2)cc1)c1cccc(Cl)c1
Found: 89.6

Lookup: So what's the measured growth (% of control) for this one? COc1cccc(C(=O)Nc2ccccc2)c1
Found: 43.8

Lookup: So what's the measured growth (% of control) for this one? N#Cc1cccc(C(=O)Nc2cccc(I)c2)c1
Found: 103

Lookup: So what's the measured growth (% of control) for this one? O=C(Nc1ccc(-n2ccnc2)cc1)c1cccc(Br)c1
Found: 44.9

Lookup: So what's the measured growth (% of control) for this one? O=C(Nc1cccc(NC(=O)c2ccccc2)c1)c1ccccc1
Found: 106

Lookup: So what's the measured growth (% of control) for this one? O=C(Nc1cccc(Br)c1)c1cccc(Cl)c1
Found: 65.4
